Molecular target: Solute carrier organic anion transporter family member 1B3 (Homo sapiens)
Sequence (Q9NPD5 whole entry): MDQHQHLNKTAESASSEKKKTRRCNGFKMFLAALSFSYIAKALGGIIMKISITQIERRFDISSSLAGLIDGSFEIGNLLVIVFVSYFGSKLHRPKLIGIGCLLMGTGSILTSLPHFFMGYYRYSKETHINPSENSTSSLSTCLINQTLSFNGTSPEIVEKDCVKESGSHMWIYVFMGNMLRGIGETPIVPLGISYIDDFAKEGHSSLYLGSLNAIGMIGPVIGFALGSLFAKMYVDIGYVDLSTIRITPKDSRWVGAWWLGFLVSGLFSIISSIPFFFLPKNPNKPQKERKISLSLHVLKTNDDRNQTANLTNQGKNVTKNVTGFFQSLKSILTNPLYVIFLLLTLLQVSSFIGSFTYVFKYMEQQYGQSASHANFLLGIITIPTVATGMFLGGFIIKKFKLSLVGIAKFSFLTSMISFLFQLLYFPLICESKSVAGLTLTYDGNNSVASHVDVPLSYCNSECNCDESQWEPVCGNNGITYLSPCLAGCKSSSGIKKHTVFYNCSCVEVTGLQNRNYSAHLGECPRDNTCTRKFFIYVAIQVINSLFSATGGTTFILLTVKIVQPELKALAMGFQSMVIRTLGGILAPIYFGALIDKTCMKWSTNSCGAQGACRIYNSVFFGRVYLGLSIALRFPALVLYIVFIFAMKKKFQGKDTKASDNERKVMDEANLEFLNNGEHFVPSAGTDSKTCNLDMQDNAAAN
Settings: chinese hamster, cho, 10 µM
Collected residual activity values appear next to each entry.
endpoint label: residual activity (%)

INSERT INTO results (compound, test_result) VALUES
  ('C=C1C[C@H]2O[C@]2(C)CC[C@@H]2[C@@H]1CC2(C)C', 80.12),
  ('N#Cc1c(Cl)c(Cl)c(Cl)c(C#N)c1Cl', 81.58),
  ('O=C1c2ccccc2C(=O)C1c1ccccc1', 128.9),
  ('CC[C@@H](CO)NC(=O)[C@@H]1C=C2c3cccc4[nH]cc(c34)C[C@H]2N(C)C1.O=C(O)/C=C\C(=O)O [METHYLERGONOVINE MALEATE]', 108.9),
  ('Cl.O=C(O)CCC1NCC2CC1CN1CCCCC21 (stereo not given) [LUPANYL ACID HYDROCHLORIDE]', 103.3),
  ('O=C(Nc1ccccc1)Nc1ccccc1', 104.3),
  ('c1ccc2[nH]c(-c3cscn3)nc2c1', 94.36),
  ('C/C=C/c1ccc2c(c1)OCO2', 79.83),
  ('CC(=O)O[C@H]1C[C@@H](OC(C)=O)C(C)(C)[C@@H]2C[C@@H](O)[C@@]3(C)[C@H](CC[C@]4(C)[C@@H](c5ccoc5)OC(=O)[C@H]5O[C@@]534)[C@@]12C', 9.535),
  ('O=C(O)/C=C/c1ccc(O)c(O)c1', 94);

###

Collected residual activity values appear next to each entry.
Target: Solute carrier organic anion transporter family member 1B1 (Homo sapiens, UniProt Q9Y6L6)
Sequence (Q9Y6L6 whole entry): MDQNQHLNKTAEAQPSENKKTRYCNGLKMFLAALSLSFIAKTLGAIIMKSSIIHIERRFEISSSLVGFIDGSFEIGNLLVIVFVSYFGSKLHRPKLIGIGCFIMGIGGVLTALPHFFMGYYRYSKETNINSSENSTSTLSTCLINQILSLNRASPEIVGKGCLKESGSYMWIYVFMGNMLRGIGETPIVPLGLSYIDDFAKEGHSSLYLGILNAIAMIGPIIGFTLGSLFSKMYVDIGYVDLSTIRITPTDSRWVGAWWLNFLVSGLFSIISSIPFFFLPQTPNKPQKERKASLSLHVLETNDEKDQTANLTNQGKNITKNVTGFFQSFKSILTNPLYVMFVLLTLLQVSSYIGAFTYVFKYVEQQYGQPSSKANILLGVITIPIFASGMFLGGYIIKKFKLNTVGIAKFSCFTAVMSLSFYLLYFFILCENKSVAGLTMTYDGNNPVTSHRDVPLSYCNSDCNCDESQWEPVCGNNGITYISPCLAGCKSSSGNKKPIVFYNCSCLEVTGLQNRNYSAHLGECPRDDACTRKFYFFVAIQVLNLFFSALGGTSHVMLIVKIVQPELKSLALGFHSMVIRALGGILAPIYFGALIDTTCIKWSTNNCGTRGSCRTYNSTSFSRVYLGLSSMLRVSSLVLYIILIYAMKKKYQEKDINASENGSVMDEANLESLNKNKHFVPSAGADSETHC
Conditions: chinese hamster, cho, 10 µM
endpoint label: residual activity

INSERT INTO measurements (compound, endpoint_label, test_result) VALUES
  ('CCNc1nc(Cl)nc(NCC)n1', 'residual activity', '89.71%'),
  ('CN[C@@H]1[C@H](O)[C@H](NC)[C@H]2O[C@@]3(O)C(=O)C[C@@H](C)O[C@H]3O[C@@H]2[C@H]1O.Cl', 'residual activity', '89.17%'),
  ('C[C@@H]1C(=O)O[C@H]2[C@H]1CC[C@@]1(C)C=CC(=O)[C@@]3(C)O[C@@]213 [EPOXY (4,5alpha)-4,5-DIHYDROSANTONIN]', 'residual activity', '91.53%'),
  ('CCC[C@H]1CC2=C(C[C@@H](CC)CC3=C1C(=O)OC3=O)C(=O)OC2=O', 'residual activity', '87.32%');

###

biological target: Solute carrier organic anion transporter family member 1B3 (Homo sapiens); conditions: chinese hamster, cho, 10 µM
Collected residual activity values appear next to each entry.
endpoint label: residual activity

INSERT INTO measurements (molecule, test_result) VALUES
  ('COc1ccc2c(c1OC)C(=O)O[C@H]2[C@H]1c2cc3c(cc2CCN1C)OCO3 [1R,9S-HYDRASTINE]', '84.49%'),
  ('Br.CC(N)Cc1ccc(O)cc1 (stereo not drawn) [HYDROXYAMPHETAMINE HYDROBROMIDE]', '84.1%'),
  ('COc1cc([C@@H]2c3cc4c(cc3[C@@H](O)[C@H]3COC(=O)[C@H]23)OCO4)cc(OC)c1O [4''-DEMETHYLEPIPODOPHYLLOTOXIN]', '69.62%');

###

Target: UniProt Q9NPD5
Sequence (Q9NPD5 whole entry): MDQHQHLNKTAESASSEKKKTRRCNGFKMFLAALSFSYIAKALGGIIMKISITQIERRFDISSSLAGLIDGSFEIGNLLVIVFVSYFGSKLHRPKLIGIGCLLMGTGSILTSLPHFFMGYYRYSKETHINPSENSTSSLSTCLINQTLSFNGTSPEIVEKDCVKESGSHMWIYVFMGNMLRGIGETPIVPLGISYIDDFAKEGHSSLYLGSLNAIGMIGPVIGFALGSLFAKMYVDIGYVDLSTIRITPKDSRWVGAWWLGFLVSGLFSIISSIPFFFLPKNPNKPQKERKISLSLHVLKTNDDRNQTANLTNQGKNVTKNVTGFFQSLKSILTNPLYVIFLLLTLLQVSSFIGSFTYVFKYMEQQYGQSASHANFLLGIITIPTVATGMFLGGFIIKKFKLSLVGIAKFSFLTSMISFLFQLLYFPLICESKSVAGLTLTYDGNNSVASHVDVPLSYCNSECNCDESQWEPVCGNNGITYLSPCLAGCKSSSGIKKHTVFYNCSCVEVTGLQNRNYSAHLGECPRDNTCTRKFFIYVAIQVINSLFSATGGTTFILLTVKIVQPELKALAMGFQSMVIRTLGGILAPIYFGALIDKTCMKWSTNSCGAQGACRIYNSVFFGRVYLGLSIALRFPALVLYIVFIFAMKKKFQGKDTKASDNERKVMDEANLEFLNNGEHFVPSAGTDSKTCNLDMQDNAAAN
Details: chinese hamster, cho, 10 µM
endpoint label: residual activity (%)

INSERT INTO results (compound, target_entity, endpoint_label, unit_label, test_result) VALUES
  ('CCCCCCCCCCCC[C@@H](C(=O)O)[C@H](C)C(=O)O', 'UniProt Q9NPD5', 'residual activity', '%', 61.85),
  ('Cc1cc(CC(=O)[O-])n(C)c1C(=O)c1ccc(Cl)cc1.O.O.[Na+] [ZOMEPIRAC SODIUM]', 'UniProt Q9NPD5', 'residual activity', '%', 118.7),
  ('CC(=O)O[C@H]1CC[C@]2(C)C3=C(CC[C@H]2C1(C)C)[C@]1(C)CC[C@H]([C@H](C)CCC=C(C)C)[C@@]1(C)CC3', 'UniProt Q9NPD5', 'residual activity', '%', 93.79),
  ('CC(C)NCC(O)COc1cccc2ccccc12.Cl (configuration not stated) [PROPRANOLOL HYDROCHLORIDE]', 'UniProt Q9NPD5', 'residual activity', '%', 95.98),
  ('Oc1ncnc2[nH]ncc12 [ALLOPURINOL]', 'UniProt Q9NPD5', 'residual activity', '%', 84.36),
  ('CC(C)(C)C(=O)C(Oc1ccc(Cl)cc1)n1cncn1 (configuration not stated) [TRIADIMEFON]', 'UniProt Q9NPD5', 'residual activity', '%', 87.3),
  ('Oc1cc(O)cc(/C=C/c2ccccc2)c1 [PINOSYLVIN]', 'UniProt Q9NPD5', 'residual activity', '%', 114.6);

Attribution: ChEMBL document CHEMBL3039007
